Quick reference: MIC of the listed items.
# Tested on: Trich. Foetus ISM 66/23
# TEST PROTOCOL: MIC protozoa, Trichomonas foetus (Table 2)
# Assay type: cell-based
# MEASUREMENT CONDITIONS: +10% serum (head); Kupferberg Trichomonas broth with 5% of horse serum
ENDPOINT NAME: MIC (µg/mL)

compound="CCCCCCCCCC[N+](C)(C)CCOC(=O)C12CC3CC(CC(C3)C1)C2 (single isomer, unassigned) [Example 1]" unit_descriptor=µg/mL result_number=2
compound="CCCCCCCCCC[N+](CC)(CC)CCNC(=O)C12CC3CC(CC(C3)C1)C2 [Example 10]" unit_descriptor=µg/mL result_number=5
compound="CCCCCCCCCC[N+](CC)(CC)CCNC(=O)C12CC3CC(CC(C3)C1)C2 [Example 9]" unit_descriptor=µg/mL result_number=2
compound="CCCCCCCCCC[N+](C)(C)CCOC(=O)C12CC3CC(CC(C3)C1)C2 (single isomer, unassigned) [Example 2]" unit_descriptor=µg/mL result_number=10
